target: Env of HIV-1 strain REJO4541.67 (HIV-1); assay: cell-based or functional assay
recorded-metric: neutralization IC50 (µg/mL)
Kindly answer with a numeric value in µg/mL, unit omitted.

- γ52κ18 (antibody, V domains shown) VH: QIHLVQSGTEVKKPGSSVTVSCKAYGVNTFGLYAVNWVRQAPGQSLEYIGQIWRWKSSASHHFRGRVLISAVDLTGSSPPISSLEIKNLTSDDTAVYFCTTTSTYDRWSGLHHDGVMAFSSWGQGTLISVSA VL: DIQMTQSPSTLSASVGDTVRISCRASQSITGGWLAWYHQRPGKAPRLLIYRGSRLLGGVPSRFSGSAAGADFTLTIANLQAEDFGTFYCQQYDTYPGTFGQGTKVEVKR: 2.13

Next item in the queue.
So for γ59κ11 (antibody, V domains shown) VH: QIHLVQSGTEVKKPGSSVTVSCKAYGVNTFGLYAVNWVRQAPGQGLEYIGQIWRWKSSASHHFRGRVLISAVDLTGSSPPISSLEIKNVTSDDTAVYFCTTTSTYDEWSDLHHDGVMAFSSWGQGTLISVSA VL: DIQMTQSPSTLSASVGGTVRISCRASQSITGGWLAWYHQRPGKAPRLLIYRGSRLLGGVPSRFSGSAAGTDFTLTIANLQAEDFGTFYCQQYDTYPGTFGQGTKVEVKR , the logged neutralization IC50 turned out to be 1.57
